Data credit: paper PMC7284125

# Tested on: S. mansoni schistosomulae
# PROTOCOL_DETAILS: Phenotypic primary screen assay on schistosomulae (phenotype; viability by methylene blue dye exclusion)
# Assay type: cell-based, Schistosoma mansoni
# CONDITION_INFO: three-day-old schistosomulae, 10 μM, 24 h; calculated 5 days post compound exposure
MEASURED_ENDPOINT: Viability (%)
// note: answer is a bare numeric in %

Worked examples, 2 compounds total:
- COMPOUND: "O=C(Nc1ccccc1-c1cn2c(CN3CCNCC3)csc2n1)c1cnc2ccccc2n1 [SRT1720]"
  ASSAY_SYSTEM: "S. mansoni schistosomulae"
  MEASURED_ENDPOINT: "Viability (%)"
  NUMERIC_RESULT: 0
- COMPOUND: "O=C(/C=C/c1ccc2ccccc2n1)c1ccncc1 [PFK15]"
  ASSAY_SYSTEM: "S. mansoni schistosomulae"
  MEASURED_ENDPOINT: "Viability (%)"
  NUMERIC_RESULT: 63

Attention now shifts to the item below.
[in] Reported Viability (%) for Cc1ccc(S(=O)(=O)c2ccc([N+](=O)[O-])o2)cc1 [NSC697923] : what is it?
[out] 0
